- Test summary: qHTS assay to identify small molecule agonists of the estrogen receptor alpha (ER-alpha) signaling pathway in the presence of an antagonist - cell viability counter screen (AID 1259386);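 further: cells exposed to compounds for 22 h at 37 °C before the viability read; nearly all actives have a fitted effect of over 30% in size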; further: potency means the concentration at half of the fitted maximal effect
- Recorded conditions: VM7Luc4E2 viability, CellTiter-Fluor fluorescence, 22 h; series mostly up to 92.4 µM
Records with an inconclusive call do not appear. Calls of active or inactive are those of the source. The call rests on the fitted dose curve; in most records, active means well fitted cell-killing curve with a large enough effect in the repeat runs; inconclusive means weak or mixed curves, or effect the other way; inactive means no such curve, though single readings can be large or run the other way.
Readout: Potency

INSERT INTO measurements (compound, readout, reported_value) VALUES
  ('[O-][n+]1ccccc1SSc1cccc[n+]1[O-]', 'Potency', '8.2 µM (active)'),
  ('O=S1(=O)CC(Cl)(Cl)C(Cl)(Cl)C1', 'Potency', '27.3 µM (active)'),
  ('N#CC1(c2ccc(F)cc2)CCC(=O)CC1', 'Potency', 'inactive'),
  ('COC(=O)c1cc(Cl)ccc1OC', 'Potency', 'inactive'),
  ('NNC(=O)c1cccc(C(=O)NN)c1', 'Potency', 'inactive'),
  ('Cc1cc(O)c(Cl)c(C)c1Cl', 'Potency', 'inactive'),
  ('Oc1cccc2cc3cccc(O)c3c(O)c12', 'Potency', 'inactive'),
  ('CCOc1nc2cccc(C(=O)OC(C)OC(=O)OC3CCCCC3)c2n1Cc1ccc(-c2ccccc2-c2nn[nH]n2)cc1 (stereo not drawn)', 'Potency', 'inactive'),
  ('CCCCCOc1ccccc1/C(=C\SC)n1ccnc1', 'Potency', 'inactive'),
  ('Clc1ccc2cc3ccccc3cc2c1', 'Potency', 'inactive'),
  ('O=C(O)c1ccc(Cl)c(Cl)c1', 'Potency', 'inactive'),
  ('COCCCC/C(=N\OCCN)c1ccc(C(F)(F)F)cc1', 'Potency', 'inactive'),
  ('C/C(=C(/OCCOc1ccc(Cl)cc1)c1ccc(Cl)cc1Cl)n1ccnc1', 'Potency', 'inactive');

====

- System under test: Estrogen receptor (Homo sapiens) (UniProt P03372)
- Sequence (P03372 whole entry, looked up): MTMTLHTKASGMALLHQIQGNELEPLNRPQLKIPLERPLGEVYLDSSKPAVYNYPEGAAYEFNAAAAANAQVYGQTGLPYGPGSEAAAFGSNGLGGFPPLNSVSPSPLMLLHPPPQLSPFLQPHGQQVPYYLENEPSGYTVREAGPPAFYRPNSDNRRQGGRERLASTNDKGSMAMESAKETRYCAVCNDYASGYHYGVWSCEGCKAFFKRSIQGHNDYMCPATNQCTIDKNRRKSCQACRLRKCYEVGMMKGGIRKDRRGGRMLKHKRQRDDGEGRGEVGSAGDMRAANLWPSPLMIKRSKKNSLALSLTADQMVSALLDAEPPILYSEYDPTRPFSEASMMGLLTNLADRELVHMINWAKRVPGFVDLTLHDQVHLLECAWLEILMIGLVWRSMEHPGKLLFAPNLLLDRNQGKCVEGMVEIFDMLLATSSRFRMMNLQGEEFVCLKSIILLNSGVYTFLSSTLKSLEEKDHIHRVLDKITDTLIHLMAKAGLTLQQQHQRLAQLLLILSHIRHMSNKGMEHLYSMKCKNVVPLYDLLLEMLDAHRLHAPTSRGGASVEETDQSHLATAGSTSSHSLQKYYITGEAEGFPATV
- Test summary: qHTS assay to identify small molecule antagonists of the estrogen receptor alpha (ER-alpha) signaling pathway using the BG1 cell line in the presence of 0.1 nM 17-beta-estradiol (AID 1259244); further: nearly all actives have a fitted effect of over 50% in size
- Recorded conditions: VM7Luc4E2 (BG1) ERE-luciferase, antagonist mode, 0.1 nM E2, 22 h; series mostly up to 92.4 µM
Records with an inconclusive call do not appear. The source made the active and inactive calls. Calls follow the shape of the dose curve; as a rule, active = well fitted inhibition curve with a large enough effect in the repeat runs; inconclusive = weak or mixed curves; inactive = no such curve, though single readings can be large or run the other way.
Outcomes: active, inactive

INSERT INTO results (compound, answer_label) VALUES
  ('CCCCCCCCCCCC(=O)NCCCN(C)C', 'inactive'),
  ('O=C1c2ccccc2Cc2ccccc21', 'inactive'),
  ('CCCCCCCCOc1ccccc1C(=O)Nc1ccc(C(=O)OCC[N+](C)(CC)CC)cc1', 'inactive'),
  ('CC(=O)N1CCN(c2ccc(OC[C@H]3CO[C@](Cn4ccnc4)(c4ccc(Cl)cc4Cl)O3)cc2)CC1', 'active'),
  ('O=C1C=CC(=O)N1', 'active'),
  ('CC(C)(C)C(=O)OCOC(=O)C1N2C(=O)CC2S(=O)(=O)C1(C)C (configuration not stated)', 'inactive'),
  ('O=c1[nH]sc2ccccc12', 'active'),
  ('CNC(=O)c1ccccc1', 'inactive'),
  ('CCCCCCCCCCCCCCCC[N+](C)(C)CCN(Cc1ccc(OC)cc1)c1ncccn1', 'inactive'),
  ('CCCCCCCCCCn1cc[n+](CCCCCCCCCC)c1C', 'active'),
  ('CCCCCCCCCCCCCC[P+](CCCC)(CCCC)CCCC (tested in a mixture with another compound)', 'active'),
  ('COc1cccc2c1C(=O)c1c(O)c3c(c(O)c1C2=O)C[C@@](O)(C(=O)CO)C[C@@H]3O[C@H]1C[C@H](N)[C@H](O[C@@H]2CCCCO2)[C@H](C)O1', 'inactive'),
  ('O=c1cccccc1O', 'inactive'),
  ('CC1(C)CCC(C)(C)c2cc(C(=O)Nc3ccc(C(=O)O)cc3)ccc21', 'inactive'),
  ('Cc1onc(-c2ccccc2Cl)c1C(=O)N[C@@H]1C(=O)N2[C@@H]1SC(C)(C)[C@@H]2C(=O)O', 'inactive'),
  ('Cc1cc(O)c2ccccc2c1O', 'active'),
  ('Cc1ccc2oc(CN(Cc3ccccc3)C(=O)Nc3c(F)cc(F)cc3F)c(-c3ccc(Cl)cc3)c2c1', 'inactive'),
  ('Oc1c(Cl)cc(Cl)c2cccnc12', 'active'),
  ('[Cl][Bi]([Cl])([c]1ccccc1)([c]1ccccc1)[c]1ccccc1', 'active'),
  ('O=[N+]([O-])c1ccccc1Nc1ccccc1', 'inactive'),
  ('Cn1cc(C(=O)[C@@H]2CCc3nc[nH]c3C2)c2ccccc21', 'inactive'),
  ('Nc1c2ccccc2nc2ccccc12', 'inactive');

====

- Test summary: qHTS assay to identify small molecule agonists of the peroxisome proliferator-activated receptor delta (PPARd) signaling pathway - cell viability counter screen (AID 743211); further: nearly all actives have a fitted effect of over 55% in size
- Recorded conditions: PPARd-bla HEK293H viability, CellTiter-Glo luminescence, 17 h; series mostly up to 62.6 µM
Records with an inconclusive call do not appear. Calls of active or inactive are those of the source. Calls come from the whole dose curve; as a rule, active = well fitted cell-killing curve with a large enough effect in the repeat runs; inconclusive = weak or mixed curves; inactive = no such curve, though single readings can be large or run the other way.
Outcomes: t (active), f (inactive)

INSERT INTO results (compound, answer_label) VALUES
  ('Cc1oc(-c2ccccc2)nc1CCC(=O)c1ccc(CC2SC(=O)NC2=O)cc1 (centres undefined)', 'f'),
  ('Nc1ccc(N)c2ccccc12', 't'),
  ('O=C(Oc1cccc2cccnc12)c1ccccc1', 't'),
  ('O=C(O)c1c(Cl)cccc1Cl', 'f'),
  ('CCCCCCCCCCCCc1ccc(O)cc1', 't'),
  ('COc1cccc(N)c1', 'f'),
  ('CCCCCCCCCCCCCCCCCC[N+](C)(C)C', 't'),
  ('CCCCCCCCn1sc(Cl)c(Cl)c1=O', 't'),
  ('[Cl][Au]([Cl])[Cl]', 't'),
  ('O=c1[nH]cnc2nc[nH]c12', 'f'),
  ('CCC(N)(CO)CO', 'f'),
  ('CC(C)c1ccc2c(c1)CC[C@H]1[C@](C)(CN)CCC[C@]21C', 't'),
  ('C=CC(=O)OCCn1c(=O)n(CCOC(=O)C=C)c(=O)n(CCOC(=O)C=C)c1=O', 't'),
  ('Clc1ccc2nsnc2c1NC1=NCCN1', 'f');

====

- Test summary: qHTS assay to identify small molecule antagonists of the sonic hedgehog signaling (Shh) pathway - cell viability counter screen (AID 1259367); further: nearly all actives have a fitted effect of over 55% in size
- Recorded conditions: NIH/3T3 Gli1-Luc viability, CellTiter-Fluor, 24 h; series mostly up to 42.5 µM
Records with an inconclusive call do not appear. Calls of active or inactive are those of the source. Calls follow the shape of the dose curve; as a rule, active = well fitted cell-killing curve with a large enough effect in the repeat runs; inconclusive = weak or mixed curves, or effect the other way; inactive = no such curve, though single readings can be large or run the other way.
Outcomes: active, inactive

INSERT INTO results (mol_smiles, answer_label) VALUES
  ('Cc1cc(O)c(Cl)c(C)c1Cl', 'active'),
  ('CS(=O)(=O)CCNCc1ccc(-c2ccc3ncnc(Nc4ccc(OCc5cccc(F)c5)c(Cl)c4)c3c2)o1', 'inactive'),
  ('CCc1oc2ccccc2c1C(=O)c1cc(Br)c(O)c(Br)c1', 'inactive'),
  ('Cc1onc(-c2c(Cl)cccc2Cl)c1C(=O)N[C@@H]1C(=O)N2[C@@H]1SC(C)(C)[C@@H]2C(=O)O', 'inactive'),
  ('[Cl][Bi]([Cl])([c]1ccccc1)([c]1ccccc1)[c]1ccccc1', 'active'),
  ('CCN(C(=O)c1cc(C)cc(OC[C@H](C)Nc2ccncc2)c1)C(C)C', 'inactive'),
  ('O=C(Oc1ccccc1)c1ccccc1C(=O)Oc1ccccc1', 'inactive'),
  ('NNc1nc(-c2ccc([N+](=O)[O-])cc2)cs1', 'active'),
  ('O=C(OC[C@H]1O[C@@H](OC(=O)c2cc(O)c(O)c(OC(=O)c3cc(O)c(O)c(O)c3)c2)[C@H](OC(=O)c2cc(O)c(O)c(OC(=O)c3cc(O)c(O)c(O)c3)c2)[C@@H](OC(=O)c2cc(O)c(O)c(OC(=O)c3cc(O)c(O)c(O)c3)c2)[C@@H]1OC(=O)c1cc(O)c(O)c(OC(=O)c2cc(O)c(O)c(O)c2)c1)c1cc(O)c(O)c(OC(=O)c2cc(O)c(O)c(O)c2)c1', 'active'),
  ('CCCN(CCC)c1c([N+](=O)[O-])cc(C(F)(F)F)c(N)c1[N+](=O)[O-]', 'active');

====

- Test summary: A CellTox Green Cytotoxicity Assay to monitor cytotoxicity in HepG2 cells - 0 hour (AID 1224882); further: nearly all actives have a fitted effect of over 35% in size
- Recorded conditions: CellTox Green fluorescence; series mostly up to 76.8 µM
- From the text: National Center for Advancing Translational Sciences [NCATS] NIH Chemical Genomics Center [NCGC] U.S. Environmental Protection Agency [EPA] National Institutes of Environmental Health Sciences [NIEHS] National Toxicology Program [NTP] Cell-based models are critical for drug discovery. […] Viable cells produce no appreciable increases in fluorescence. Therefore, the fluorescence signal produced by the binding interaction with dead cell DNA is proportional to cytotoxicity. […]
The source made the active and inactive calls. Calls come from the whole dose curve; as a rule, active = well fitted activation curve with a large enough effect in the repeat runs; inconclusive = weak or mixed curves; inactive = flat fitted curve, though single readings scatter.
Outcomes: active, inactive

INSERT INTO results (mol_smiles, answer_label) VALUES
  ('Cc1cccc2c1cc1ccc3cccc4ccc2c1c34', 'inactive'),
  ('CCCCCCCCn1sc(Cl)c(Cl)c1=O', 'inactive'),
  ('CC(C)=CCOc1ccc(/C=C/C(=O)c2ccc(OCC=C(C)C)cc2OCC(=O)O)cc1', 'inactive'),
  ('O=C1c2c(O)ccc(Nc3ccc(CCO)cc3)c2C(=O)c2c([N+](=O)[O-])ccc(O)c21', 'inactive'),
  ('COc1cc(-c2nc(NC(=O)c3cc4cc(C)cc(C)c4n3CC(=O)O)sc2CCC2CCCCC2)c(OC)cc1Cl', 'active'),
  ('CCOc1ccc2nc3cc(N)ccc3c(N)c2c1', 'inactive'),
  ('NC(=O)C1(N2CCCCC2)CCN(CCCN2c3ccccc3CCc3ccc(Cl)cc32)CC1', 'inactive'),
  ('O=[N+]([O-])c1cc(Cl)c(Cl)c(Cl)c1Cl', 'inactive'),
  ('Nc1ccc(N)c2ccccc12', 'inactive'),
  ('Oc1cccc2cc3cccc(O)c3c(O)c12', 'inactive'),
  ('[Cl][Bi]([Cl])([c]1ccccc1)([c]1ccccc1)[c]1ccccc1', 'inactive'),
  ('OCCN1CCN(CC/C=C2/c3ccccc3Sc3ccc(C(F)(F)F)cc32)CC1', 'inactive'),
  ('Oc1ccc2c(c1)-c1ccccc1C2', 'inactive'),
  ('C[C@]12CCC(=O)C=C1CC[C@@H]1[C@@H]2[C@@H](O)C[C@@]2(C)[C@H]1CC[C@]2(O)C(=O)COC(=O)CCC(=O)O', 'inactive');
